B1: LINE1-mini (parent)
chain: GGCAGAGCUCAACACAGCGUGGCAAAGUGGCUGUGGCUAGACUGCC

- Variants of: B1
- assay details: self-cleavage, relative activity (ratio to wild type); higher = more cleavage; in vitro, sequencing; the parent is a self-cleaving ribozyme

[
  {
    "ordered residues": "GGCAGAGCUCAACCCAGCGUGGCAAAGUGGCUGUGGAUAGACUGCC",
    "self-cleavage": 0.08
  },
  {
    "ordered residues": "GGCAGACCUAAACACAGCGUGGCAAAGUGGCUGUGGCUAGACUGCC",
    "self-cleavage": 0.04
  },
  {
    "ordered residues": "GGCAGAUCUCAACACAGCGUGGCAAAGUGCCUGUGGCUAGACUGCC",
    "self-cleavage": 0.06
  },
  {
    "ordered residues": "GGCAGCGGUCAACACAGCGUGGCAAAGUGGCUGUGGCUAGACUGCC",
    "self-cleavage": 0.07
  },
  {
    "ordered residues": "GGCAGAACUCAAUACAGCGUGGCAAAGUGGCUGUGGCUAGACUGCC",
    "self-cleavage": 0.29
  },
  {
    "ordered residues": "GGCAGAGAUCAACACCGCGUGGCAAAGUGGCUGUGGCUAGACUGCC",
    "self-cleavage": 0.25
  },
  {
    "ordered residues": "GGCAGAGCUCAACACAGCGUGGCAAAGUGGCUGUGGAUAGACUGUC",
    "self-cleavage": 0.08
  },
  {
    "ordered residues": "GGCAGAGCUCAACACAGCGUGGCAAAGUGGCUGUGGAUAGACUACC",
    "self-cleavage": 0.13
  },
  {
    "ordered residues": "GGCAGAGUUCAAAACAGCGUGGCAAAGUGGCUGUGGCUAGACUGCC",
    "self-cleavage": 0.5
  },
  {
    "ordered residues": "GGCAGAGCGCAACACUGCGUGGCAAAGUGGCUGUGGCUAGACUGCC",
    "self-cleavage": 0.14
  },
  {
    "ordered residues": "GGCACAGCUCAACACAGCGUGGCAAAGUGGCUGUGGAUAGACUGCC",
    "self-cleavage": 0.05
  }
]
